Target: T1, mouse CTGF (Abbexa) (mouse, UniProt P29268 26-348, limits assumed)
T1 construct: also called Murine CTGF; mCTGF
T1 sequence (looked up): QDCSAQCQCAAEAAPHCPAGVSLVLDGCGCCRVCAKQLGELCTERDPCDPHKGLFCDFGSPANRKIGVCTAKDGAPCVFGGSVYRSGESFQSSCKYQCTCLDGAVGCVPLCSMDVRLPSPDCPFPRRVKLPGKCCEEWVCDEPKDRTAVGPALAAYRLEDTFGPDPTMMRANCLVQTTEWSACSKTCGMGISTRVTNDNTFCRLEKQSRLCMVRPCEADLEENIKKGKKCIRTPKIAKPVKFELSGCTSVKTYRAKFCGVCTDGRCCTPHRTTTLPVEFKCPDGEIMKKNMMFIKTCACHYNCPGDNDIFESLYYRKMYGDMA
Assay: SPR (Biacore)
The following binders are listed with their measured kon values.
The reply should contain only the number, in M⁻¹ s⁻¹.

Consider the worked cases shown below.
>  <Binder>
lipocalin mutein of SEQ ID NO: 35 (designed binder, also called hNGAL mutein; not shown: C-terminal His-tag) QDSTSDLIPAPPLSKVPLQQNFQDNQFQGKWYVVGWAGNVKLREDKQPLKMSATIYELKEDKSYDVTEVVFEQKKCHYIIKTFVPGSQPGEFTAGDIKSPPGYTSSLVRVVSTNYNQHAMVFFKKVSQNREFFWITLYGRTKELTSELKENFIRFSKSLGLPENHIVFPVPIDQCIDG

>  <U>
M⁻¹ s⁻¹

>  <Recorded Measurement>
128000

$$$$
>  <Binder>
lipocalin mutein of SEQ ID NO: 16 (designed binder, also called hNGAL mutein; not shown: C-terminal His-tag) QDSTSDLIPAPPLSKVPLQQNFQDNQFQGKWYVVGLAGNAILRTDKQPAKMFATIYELKEDKSYDVTSVRFEAKSCVYTIKTFVPGSQPGEFTAGNIKSAPGQTSTLVRVVSTNYNQHAMVFFKHVSQNREFFVITLYGRTKELTSELKENFIRFSKSLGLPENHIVFPVPIDQCIDG

>  <U>
M⁻¹ s⁻¹

>  <Recorded Measurement>
161000

$$$$

// next entry
In: Kindly indicate its recorded kon. Item: lipocalin mutein of SEQ ID NO: 28 (designed binder, also called hNGAL mutein; not shown: C-terminal His-tag) QDSTSDLIPAPPLSKVPLQQNFQDNQFQGKWYVVGLAGNYRLREDKDPSKMGATIYELKEDKSYDVTQVQFDDKKCLYVIETFVPGSQPGEFTLGAIKSYPGLTSQLVRVVSTNYNQHAMVFVKKVWPNLEYFQIVLYGRTKELTSELKENFIRFSKSLGLPENHIVFPVPIDQCIDG
Out: 60700
